# study.target: EGFR (UniProt P00533)
# Sequence (P00533 whole entry, looked up): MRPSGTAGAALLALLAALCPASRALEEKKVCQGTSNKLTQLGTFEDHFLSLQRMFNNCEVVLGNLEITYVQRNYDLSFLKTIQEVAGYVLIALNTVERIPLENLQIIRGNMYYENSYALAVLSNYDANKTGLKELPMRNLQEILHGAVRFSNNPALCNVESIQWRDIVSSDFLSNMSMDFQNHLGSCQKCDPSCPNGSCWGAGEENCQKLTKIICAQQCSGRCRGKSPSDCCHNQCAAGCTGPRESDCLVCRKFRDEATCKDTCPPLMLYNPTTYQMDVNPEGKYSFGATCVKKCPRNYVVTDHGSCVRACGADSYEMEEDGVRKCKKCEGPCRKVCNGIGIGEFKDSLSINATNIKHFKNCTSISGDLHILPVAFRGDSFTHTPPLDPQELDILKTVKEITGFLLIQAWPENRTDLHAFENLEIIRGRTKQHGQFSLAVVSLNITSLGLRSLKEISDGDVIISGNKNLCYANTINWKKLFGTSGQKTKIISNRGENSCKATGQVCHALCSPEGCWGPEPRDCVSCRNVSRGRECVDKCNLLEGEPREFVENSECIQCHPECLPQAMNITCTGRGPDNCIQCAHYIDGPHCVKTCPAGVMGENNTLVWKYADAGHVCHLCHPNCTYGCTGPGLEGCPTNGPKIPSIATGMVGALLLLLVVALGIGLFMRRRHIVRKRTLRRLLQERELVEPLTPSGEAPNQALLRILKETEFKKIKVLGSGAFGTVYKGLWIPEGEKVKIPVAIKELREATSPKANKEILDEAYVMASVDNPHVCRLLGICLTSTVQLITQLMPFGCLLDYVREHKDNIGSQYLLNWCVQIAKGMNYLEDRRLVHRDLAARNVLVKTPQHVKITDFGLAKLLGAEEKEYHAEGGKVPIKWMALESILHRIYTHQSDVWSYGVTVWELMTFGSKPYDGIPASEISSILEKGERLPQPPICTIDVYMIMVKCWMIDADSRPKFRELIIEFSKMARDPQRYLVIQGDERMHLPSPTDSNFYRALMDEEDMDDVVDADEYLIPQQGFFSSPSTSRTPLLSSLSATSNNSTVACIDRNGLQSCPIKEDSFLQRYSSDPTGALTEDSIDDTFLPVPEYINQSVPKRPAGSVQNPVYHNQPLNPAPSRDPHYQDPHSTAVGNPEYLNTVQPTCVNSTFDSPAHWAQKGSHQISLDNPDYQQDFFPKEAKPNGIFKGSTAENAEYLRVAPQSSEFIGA
# recorded.conditions: concentration not given here

| compound | inhibition |
| --- | --- |
| COc1ccccc1-c1cc(Nc2ccc(NS(C)(=O)=O)cc2)ncn1 | 50 to 80% |
| COc1ccccc1-c1cc(Nc2ccc(NC(=O)[C@H]3CCCN3)cc2)ncn1 | > 80% |
| COc1ccccc1-c1cc(Nc2ccc(NC(=O)c3cn(C)cn3)cc2)ncn1 | 50 to 80% |
| COc1ccccc1-c1cc(Nc2ccc(NC(=O)[C@@H](N)c3ccccc3)cc2)ncn1 | 50 to 80% |
| COc1ccccc1-c1cc(Nc2ccc(NC(=O)C3CCCN(C)C3)cc2)ncn1 (stereo not given) | > 80% |
| Cc1ccc(Nc2cc(-c3cccc(N)c3)ncn2)cc1NS(C)(=O)=O | > 80% |
| CN[C@H](C(=O)Nc1ccc(Nc2cc(-c3ccccc3OC)ncn2)cc1)c1ccccc1 | > 80% |
| COc1ccccc1-c1cc(Nc2ccc(NC(=O)CCN)cc2)ncn1 | > 80% |
| COc1ccccc1-c1cc(Nc2ccc(NC(=O)[C@@H]3Cc4ccccc4CN3)cc2)ncn1 | > 80% |
| COc1ccccc1-c1cc(Nc2ccc(NC(=O)C3(N)CCCC3)cc2)ncn1 | > 80% |
